Assay: soluble on expression in E. coli; label from the status in PepcDB or PDB records
reported.metric: soluble on expression in E. coli

>>> recorded_value("MSIPINFNNLKYLLNDMRNKNRIIEAFPFNYNQRQYAVILTRYKPDEPRPDDYAQAKLEFFNLNSENSIFAYADFYEVHFKSATDFINFFKINVQAGAAKIREIFQSFSNLFADFIPTQTKKDLDIIYKKIVATRLEPNSPNTIYCYDVRRNGKDKAGKPNRRSVENSEKAKILRPELYEKFKADSNYSFFFSDNPSDEKTDAEIIREVTNRQ")
"not soluble"
>>> recorded_value("MNLEQLINVLGLLVWIAARAVSRVGPHGSGLVYRELHDFYGYLQLDLLGPVVAGNRSVRTWREQADRARGTFAWRSGLNTSRILPVGSMYRGSDALPAGLYRPEEEVFLLLNRCHGPLSTPKNACLAEVGVANATFLSRFNVGDFHGASWENGTAPDGEPGVCLEHHHHHH")
"not soluble"
>>> recorded_value("MAAYRADDDYDFLYKVVLIGDSGVGKSNLLSRFTRNEFSLESKSTIGVEFATRSIHVDEKIVKAQIWDTAGQERYRAITSAYYRGAVGALLVYDVTRHVTFENVERWLKELRDHTEANIVIMLVGNKADLRHLRAVSTEDAKAFAERENTFFMETSALEALNVENAFTEVLSQIYRVASKKALDIGDDHTTLPKGQSINVGSKDDVSEVKKVGCCSS")
"soluble"
>>> recorded_value("GSHMASMTGGQQMGRGSDSSNAITIENNTLWTGAKPSANCVIKEGEDSPDCKLTLVLVKNGGLINGYITLMGASEYTNTLFKNNQVTIDVNLAFDNTGQIITYLSSLKSNLNFKDNQNMATGTITSAKGFMPSTTAYPFITYATETLNEDYIYGECYYKSTNGTLFPLKVTVTLNRRMLASGMAYAMNFSWSLNAEEAPETTEVTLITSPFFFSYIREDD")
"soluble"
>>> recorded_value("MKVYKDVFTNDEVCSDSYNQEDPFGIADFREIAFEVKSNKRIKGNDDYGIADNSEEAVDGMGADVEQVIDIVDSFQLTSTSLSKKEYSVYIKNYMQKILKYLEEKKPDRVDVFKTKAQPLIKHILTNFDDFEFYMGESLDMDAGLTYSYYKGEEVTPRFVYISDGLYEEKF")
"soluble"
